Biological target: T1, IL-18 receptor (IL-18Rαβ) on cells (UniProt Q13478 19-541; O95256 20-599, limits assumed)
T1 sequence (looked up) 1: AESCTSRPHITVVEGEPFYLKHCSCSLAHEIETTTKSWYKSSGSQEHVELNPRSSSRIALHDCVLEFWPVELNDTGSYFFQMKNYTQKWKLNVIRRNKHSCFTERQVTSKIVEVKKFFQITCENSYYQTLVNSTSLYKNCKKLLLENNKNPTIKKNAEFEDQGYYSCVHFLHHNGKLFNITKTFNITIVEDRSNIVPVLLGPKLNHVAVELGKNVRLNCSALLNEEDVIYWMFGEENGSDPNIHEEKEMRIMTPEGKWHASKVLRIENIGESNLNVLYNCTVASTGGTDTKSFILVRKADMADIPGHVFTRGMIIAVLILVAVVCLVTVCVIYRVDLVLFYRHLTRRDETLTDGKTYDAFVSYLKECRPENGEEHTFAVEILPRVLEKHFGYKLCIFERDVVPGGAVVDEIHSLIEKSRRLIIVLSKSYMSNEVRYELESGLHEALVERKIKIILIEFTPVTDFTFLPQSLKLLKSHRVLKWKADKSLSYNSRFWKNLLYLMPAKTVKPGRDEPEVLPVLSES
T1 sequence (looked up) 2: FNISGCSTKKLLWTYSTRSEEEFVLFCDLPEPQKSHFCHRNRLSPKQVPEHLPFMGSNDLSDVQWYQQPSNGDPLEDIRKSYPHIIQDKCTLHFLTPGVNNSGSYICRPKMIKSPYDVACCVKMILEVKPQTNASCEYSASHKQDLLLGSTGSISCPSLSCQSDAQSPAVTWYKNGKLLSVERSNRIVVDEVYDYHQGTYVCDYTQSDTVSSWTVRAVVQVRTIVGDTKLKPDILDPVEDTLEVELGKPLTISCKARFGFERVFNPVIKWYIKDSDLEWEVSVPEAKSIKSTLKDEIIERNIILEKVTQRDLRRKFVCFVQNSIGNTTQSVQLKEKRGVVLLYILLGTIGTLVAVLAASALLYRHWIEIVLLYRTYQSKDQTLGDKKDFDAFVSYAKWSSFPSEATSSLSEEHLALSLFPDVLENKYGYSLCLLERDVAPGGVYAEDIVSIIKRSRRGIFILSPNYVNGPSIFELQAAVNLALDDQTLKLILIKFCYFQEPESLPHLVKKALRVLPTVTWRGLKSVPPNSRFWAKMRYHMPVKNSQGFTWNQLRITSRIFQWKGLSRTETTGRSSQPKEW
Assay: cell-based or functional assay
This section presents binders with their documented IFNγ release NK-92 assay EC50 values.
Express your answer in nM, writing the number without its unit.

Reference set (2 entries):
C325 (ligand) MAAEPVEDNSINFVAMKFIDNTLYFIAEDDENLESDRGRRPLGLAGGSGYFGKLKSKLSIIRNLNDQVLFIDQGNRPLFEDMTDSDARDNAPRTIFIISMYADSQPRGMAVAISVKCEKISTLSAENKIISFKEMNPPDNIKDTKSDIIFFQRSVPGHDNKMQFESSSYEGYFLAAEKERDLFKLILKKEDELGDRSIMFTVQNED = 201
C317 (ligand) MAAEPVEDNSINFVAMKFIDNTLYFIAEDDENLESDRGRRVANLVGYFGKLKSKLSIIRNLNDQVLFIDQGNRPLFEDMTDSDARDNAPRTIFIISMYADSQPRGMAVAISVKCEKISTLSAENKIISFKEMNPPDNIKDTKSDIIFFQRSVPGHDNKMQFESSSYEGYFLAAEKERDLFKLILKKEDELGDRSIMFTVQNED = 526

In the following, a different binder is considered.
State the recorded IFNγ release NK-92 assay EC50 for this entry: C321 (ligand) MAAEPVEDNSINFVAMKFIDNTLYFIAEDDENLESDRGRRPLGYFGKLKSKLSIIRNLNDQVLFIDQGNRPLFEDMTDSDARDNAPRTIFIISMYADSQPRGMAVAISVKCEKISTLSAENKIISFKEMNPPDNIKDTKSDIIFFQRSVPGHDNKMQFESSSYEGYFLAAEKERDLFKLILKKEDELGDRSIMFTVQNED
112
